All values here come from paper PMC8421423.

Study Target: Akt1 (Homo sapiens, UniProt P31749)
Sequence (P31749 whole entry): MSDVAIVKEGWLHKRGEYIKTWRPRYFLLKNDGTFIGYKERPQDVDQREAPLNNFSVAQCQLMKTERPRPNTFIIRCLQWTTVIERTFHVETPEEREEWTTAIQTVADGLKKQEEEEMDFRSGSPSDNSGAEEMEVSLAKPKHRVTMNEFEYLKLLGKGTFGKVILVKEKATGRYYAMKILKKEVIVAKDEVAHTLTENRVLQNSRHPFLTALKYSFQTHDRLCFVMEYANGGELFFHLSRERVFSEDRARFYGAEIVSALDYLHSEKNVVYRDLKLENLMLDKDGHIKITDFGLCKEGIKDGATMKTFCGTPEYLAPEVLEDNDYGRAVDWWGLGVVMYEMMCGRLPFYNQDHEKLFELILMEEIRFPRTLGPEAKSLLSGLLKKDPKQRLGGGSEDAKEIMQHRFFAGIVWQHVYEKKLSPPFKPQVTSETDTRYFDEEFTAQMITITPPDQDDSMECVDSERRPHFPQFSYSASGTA
Experiment Summary: STK HTRF KinEASE activity-based assay (IC50)
Condition Parameters: HTRF IC50 Akt1, Mean, mean of replicates
Value Kind: IC50 (µM)
Give the quantity in µM, number only.

Can you share its IC50? I mean this compound: C=CC(=O)Nc1ccc2[nH]c(=O)n(C3CCN(Cc4ccc(-c5ncc(C(=O)OC)cc5-c5ccccc5)cc4)CC3)c2c1 [compound 5]
0.0355

Can you share its IC50? I mean this compound: C=CC(=O)Nc1ccc2[nH]c(=O)n(C3CCN(Cc4ccc(-c5ncc(C(=O)Nc6cccc(N)c6)cc5-c5ccccc5)cc4)CC3)c2c1 [compound 18]
0.0906

Can you share its IC50? I mean this compound: C=CC(=O)Nc1ccc2[nH]c(=O)n(C3CCN(Cc4ccc(-c5ncc(C(=O)NCC(C)C)cc5-c5ccccc5)cc4)CC3)c2c1 [compound 10]
1.72

Can you share its IC50? I mean this compound: C=CC(=O)Nc1ccc2[nH]c(=O)n(C3CCN(Cc4ccc(-c5ncc(CN6CCCC6)cc5-c5ccccc5)cc4)CC3)c2c1 [compound 7]
7.09

Can you share its IC50? I mean this compound: C=CC(=O)Nc1ccc2[nH]c(=O)n(C3CCN(Cc4ccc(-c5ncc(C(=O)Nc6cccnc6)cc5-c5ccccc5)cc4)CC3)c2c1 [compound 22]
0.209

Can you share its IC50? I mean this compound: C=CC(=O)Nc1ccc2[nH]c(=O)n(C3CCN(Cc4ccc(-c5ncc(Cc6cccnc6)cc5-c5ccccc5)cc4)CC3)c2c1 [compound 21]
1.8

Can you share its IC50? I mean this compound: C=CC(=O)Nc1ccc2[nH]c(=O)n(C3CCN(Cc4ccc(-c5ncc(Cc6cnn(C)c6)cc5-c5ccccc5)cc4)CC3)c2c1 [compound 12]
1.28

Can you share its IC50? I mean this compound: C=CC(=O)Nc1ccc2[nH]c(=O)n(C3CCN(Cc4ccc(-c5ncc(Cc6ccc(N)nc6)cc5-c5ccccc5)cc4)CC3)c2c1 [compound 20]
1.63

Can you share its IC50? I mean this compound: C=CC(=O)Nc1ccc2[nH]c(=O)n(C3CCN(Cc4ccc(-c5ncc(Cc6ccc(C)o6)cc5-c5ccccc5)cc4)CC3)c2c1 [compound 15]
0.604

Can you share its IC50? I mean this compound: C=CC(=O)Nc1ccc2[nH]c(=O)n(C3CCN(Cc4ccc(-c5ncc(C)cc5-c5ccccc5)cc4)CC3)c2c1 [compound 2]
0.0218

Can you share its IC50? I mean this compound: C=CC(=O)Nc1ccc2[nH]c(=O)n(C3CCN(Cc4ccc(-c5ncc(Cc6cccc(O)c6)cc5-c5ccccc5)cc4)CC3)c2c1 [compound 16]
9.48

Can you share its IC50? I mean this compound: C=CC(=O)Nc1ccc2[nH]c(=O)n(C3CCN(Cc4ccc(-c5ncc(CO)cc5-c5ccccc5)cc4)CC3)c2c1 [compound 3]
0.184

Can you share its IC50? I mean this compound: C=CC(=O)Nc1ccc2[nH]c(=O)n(C3CCN(Cc4ccc(-c5ncc(C(=O)Nc6cnn(C)c6)cc5-c5ccccc5)cc4)CC3)c2c1 [compound 13]
0.0976

====

Test system: Ba/F3^myr-Akt3 cells
Experiment Summary: CellTiter-Glo cell viability assay
Condition Parameters: read-out: CTG BaF3myr-Akt3, Mean; mean of replicates
Value Kind: EC50

Recorded EC50 for C=CC(=O)Nc1ccc2[nH]c(=O)n(C3CCN(Cc4ccc(-c5ncc(C(=O)O)cc5-c5ccccc5)cc4)CC3)c2c1 with Ba/F3^myr-Akt3 cells, please?
> 30 µM

====

Study Target: Akt1 (Homo sapiens, UniProt P31749)
Experiment Summary: STK HTRF KinEASE activity-based assay (IC50)
Condition Parameters: HTRF IC50 Akt1, Mean, mean of replicates
I'd be grateful if you could share measured IC50 for these entries.
Give the quantity in nM, number only.

Can you share its IC50? I mean this compound: C=CC(=O)Nc1ccc2[nH]c(=O)n(C3CCN(Cc4ccc(-c5ncc(Cc6cccc(N)c6)cc5-c5ccccc5)cc4)CC3)c2c1
2850

Can you share its IC50? I mean this compound: C=CC(=O)Nc1ccc2[nH]c(=O)n(C3CCN(Cc4ccc(-c5ncc(Cc6cn[nH]c6)cc5-c5ccccc5)cc4)CC3)c2c1
527

Can you share its IC50? I mean this compound: C=CC(=O)Nc1ccc2[nH]c(=O)n(C3CCN(Cc4ccc(-c5ncc(C(=O)Nc6ccccn6)cc5-c5ccccc5)cc4)CC3)c2c1
130

====

Study Target: Akt2 (Homo sapiens)
Sequence (P31751 whole entry): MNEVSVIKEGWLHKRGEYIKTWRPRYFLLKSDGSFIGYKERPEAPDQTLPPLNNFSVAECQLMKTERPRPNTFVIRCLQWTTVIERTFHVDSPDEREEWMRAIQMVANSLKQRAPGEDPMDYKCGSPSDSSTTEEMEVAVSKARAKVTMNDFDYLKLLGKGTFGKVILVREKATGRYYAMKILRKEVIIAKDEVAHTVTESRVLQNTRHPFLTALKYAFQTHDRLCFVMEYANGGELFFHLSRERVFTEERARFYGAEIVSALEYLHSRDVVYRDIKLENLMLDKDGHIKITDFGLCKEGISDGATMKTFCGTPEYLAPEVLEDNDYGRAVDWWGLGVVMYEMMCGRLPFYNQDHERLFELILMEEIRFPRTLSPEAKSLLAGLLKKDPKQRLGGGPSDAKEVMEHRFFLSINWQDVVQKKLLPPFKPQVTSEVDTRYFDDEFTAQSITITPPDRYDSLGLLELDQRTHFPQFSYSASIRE
Experiment Summary: STK HTRF KinEASE activity-based assay (IC50)
Condition Parameters: read-out: IC50 Akt2; HTRF, ATP at KM, 1 h preincubation
Value Kind: IC50 (nM)
Give the quantity in nM, number only.

Can you share its IC50? I mean this compound: C=CC(=O)Nc1ccc2[nH]c(=O)n(C3CCN(Cc4ccc(-c5ncc(C(=O)O)cc5-c5ccccc5)cc4)CC3)c2c1 [compound 4]
248

====

Study Target: UniProt:P31749
Experiment Summary: PhosphoSens continuous fluorometric kinetic enzyme assay
Condition Parameters: read-out: kinact Akt1, individual determinations, single replicates
Value Kind: kinact (s⁻¹)
Give the quantity in s⁻¹, number only.

Can you share its kinact? I mean this compound: C=CC(=O)Nc1ccc2[nH]c(=O)n(C3CCN(Cc4ccc(-c5ncc(C(=O)Nc6cnn(C)c6)cc5-c5ccccc5)cc4)CC3)c2c1
0.00025

Can you share its kinact? I mean this compound: C=CC(=O)Nc1ccc2[nH]c(=O)n(C3CCN(Cc4ccc(-c5ncccc5-c5ccccc5)cc4)CC3)c2c1
0.00015

Can you share its kinact? I mean this compound: C=CC(=O)Nc1ccc2[nH]c(=O)n(C3CCN(Cc4ccc(-c5ncc(C(=O)Nc6cccc(N)c6)cc5-c5ccccc5)cc4)CC3)c2c1
0.000267

Can you share its kinact? I mean this compound: C=CC(=O)Nc1ccc2[nH]c(=O)n(C3CCN(Cc4ccc(-c5ncc(C(=O)Nc6cccnc6)cc5-c5ccccc5)cc4)CC3)c2c1
0.000317

====

Study Target: Akt2 (Homo sapiens)
Experiment Summary: STK HTRF KinEASE activity-based assay (IC50)
Condition Parameters: IC50 Akt2, HTRF, ATP at KM, 1 h preincubation
Value Kind: log10(IC50) (log10 of the value in nM)
Log scale reminder: IC50 in nM, then log10 taken.

Can you share its log10(IC50)? I mean this compound: C=CC(=O)Nc1ccc2[nH]c(=O)n(C3CCN(Cc4ccc(-c5ncc(CN6CCCC6)cc5-c5ccccc5)cc4)CC3)c2c1
2.68

Can you share its log10(IC50)? I mean this compound: C=CC(=O)Nc1ccc2[nH]c(=O)n(C3CCN(Cc4ccc(-c5ncc(C(=O)N6CCCC6)cc5-c5ccccc5)cc4)CC3)c2c1
3.32

Can you share its log10(IC50)? I mean this compound: C=CC(=O)Nc1ccc2[nH]c(=O)n(C3CCN(Cc4ccc(-c5ncc(C(=O)NC)cc5-c5ccccc5)cc4)CC3)c2c1
2.03

Can you share its log10(IC50)? I mean this compound: C=CC(=O)Nc1ccc2[nH]c(=O)n(C3CCN(Cc4ccc(-c5ncc(C(=O)NCC(C)C)cc5-c5ccccc5)cc4)CC3)c2c1
1.97

Can you share its log10(IC50)? I mean this compound: C=CC(=O)Nc1ccc2[nH]c(=O)n(C3CCN(Cc4ccc(-c5ncccc5-c5ccccc5)cc4)CC3)c2c1
2.78

Can you share its log10(IC50)? I mean this compound: C=CC(=O)Nc1ccc2[nH]c(=O)n(C3CCN(Cc4ccc(-c5ncc(Cc6ccc(C)o6)cc5-c5ccccc5)cc4)CC3)c2c1
3.15

Can you share its log10(IC50)? I mean this compound: C=CC(=O)Nc1ccc2[nH]c(=O)n(C3CCN(Cc4ccc(-c5ncc(CNCC(C)C)cc5-c5ccccc5)cc4)CC3)c2c1
3.62

Can you share its log10(IC50)? I mean this compound: C=CC(=O)Nc1ccc2[nH]c(=O)n(C3CCN(Cc4ccc(-c5ncc(C)cc5-c5ccccc5)cc4)CC3)c2c1
2.18

Can you share its log10(IC50)? I mean this compound: C=CC(=O)Nc1ccc2[nH]c(=O)n(C3CCN(Cc4ccc(-c5ncc(Cc6cn[nH]c6)cc5-c5ccccc5)cc4)CC3)c2c1
1.36

Can you share its log10(IC50)? I mean this compound: C=CC(=O)Nc1ccc2[nH]c(=O)n(C3CCN(Cc4ccc(-c5ncc(Cc6cccnc6)cc5-c5ccccc5)cc4)CC3)c2c1
2.00

Can you share its log10(IC50)? I mean this compound: C=CC(=O)Nc1ccc2[nH]c(=O)n(C3CCN(Cc4ccc(-c5ncc(C(=O)OC)cc5-c5ccccc5)cc4)CC3)c2c1
2.06

Can you share its log10(IC50)? I mean this compound: C=CC(=O)Nc1ccc2[nH]c(=O)n(C3CCN(Cc4ccc(-c5ncc(CO)cc5-c5ccccc5)cc4)CC3)c2c1
2.98

Can you share its log10(IC50)? I mean this compound: C=CC(=O)Nc1ccc2[nH]c(=O)n(C3CCN(Cc4ccc(-c5ncc(Cc6ccc(N)nc6)cc5-c5ccccc5)cc4)CC3)c2c1
2.24

Can you share its log10(IC50)? I mean this compound: C=CC(=O)Nc1ccc2[nH]c(=O)n(C3CCN(Cc4ccc(-c5ncc(Cn6ccnc6)cc5-c5ccccc5)cc4)CC3)c2c1
1.88

Can you share its log10(IC50)? I mean this compound: C=CC(=O)Nc1ccc2[nH]c(=O)n(C3CCN(Cc4ccc(-c5ncc(Cc6cccc(N)c6)cc5-c5ccccc5)cc4)CC3)c2c1
2.12

Can you share its log10(IC50)? I mean this compound: C=CC(=O)Nc1ccc2[nH]c(=O)n(C3CCN(Cc4ccc(-c5ncc(Cc6cnn(C)c6)cc5-c5ccccc5)cc4)CC3)c2c1
2.40

Can you share its log10(IC50)? I mean this compound: C=CC(=O)Nc1ccc2[nH]c(=O)n(C3CCN(Cc4ccc(-c5ncc(C(=O)Nc6cccc(N)c6)cc5-c5ccccc5)cc4)CC3)c2c1
1.59

Can you share its log10(IC50)? I mean this compound: C=CC(=O)Nc1ccc2[nH]c(=O)n(C3CCN(Cc4ccc(-c5ncc(Cc6cccc(O)c6)cc5-c5ccccc5)cc4)CC3)c2c1
2.83

Can you share its log10(IC50)? I mean this compound: C=CC(=O)Nc1ccc2[nH]c(=O)n(C3CCN(Cc4ccc(-c5ncc(C(=O)Nc6cnn(C)c6)cc5-c5ccccc5)cc4)CC3)c2c1
1.72

Can you share its log10(IC50)? I mean this compound: C=CC(=O)Nc1ccc2[nH]c(=O)n(C3CCN(Cc4ccc(-c5ncc(C(=O)Nc6cccnc6)cc5-c5ccccc5)cc4)CC3)c2c1
1.74

Can you share its log10(IC50)? I mean this compound: C=CC(=O)Nc1ccc2[nH]c(=O)n(C3CCN(Cc4ccc(-c5ncc(Cc6ccc(N)cc6)cc5-c5ccccc5)cc4)CC3)c2c1
2.71

Can you share its log10(IC50)? I mean this compound: C=CC(=O)Nc1ccc2[nH]c(=O)n(C3CCN(Cc4ccc(-c5ncc(C(=O)Nc6ccccn6)cc5-c5ccccc5)cc4)CC3)c2c1
2.18
